Taken from patent US20200299384A1.

biological target: T1, human CD3 expressed on cells (Jurkat cells; human CD4 T cells) (human, UniProt P07766 23-207); experiment: flow cytometry on Jurkat cells; further: test concentration or dose not given here
T1 construct: whole, on cells; also called human CD3 receptor on T cell surface; human CD3 expressing cells (Jurkat cells)
T1 sequence (P07766 23-207): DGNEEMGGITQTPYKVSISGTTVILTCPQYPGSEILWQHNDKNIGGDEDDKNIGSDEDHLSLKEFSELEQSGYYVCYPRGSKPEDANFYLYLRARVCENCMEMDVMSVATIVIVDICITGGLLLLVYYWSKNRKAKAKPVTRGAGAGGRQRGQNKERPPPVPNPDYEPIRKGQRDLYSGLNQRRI
Could you please report measured MFI (FACS) for the items listed next?
# value in MFI; strip the unit string

Lab note: measured MFI (FACS) of WBP3311_2.306.4 (antibody, IgG2b, V domains shown, Mouse monoclonal antibody from hybridoma; also called W3311-2.306.4; W3311-2.306.4-mIgG2bK) VH: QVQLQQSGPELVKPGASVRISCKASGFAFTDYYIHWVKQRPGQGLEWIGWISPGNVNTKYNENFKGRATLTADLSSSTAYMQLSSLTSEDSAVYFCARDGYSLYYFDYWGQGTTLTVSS VL: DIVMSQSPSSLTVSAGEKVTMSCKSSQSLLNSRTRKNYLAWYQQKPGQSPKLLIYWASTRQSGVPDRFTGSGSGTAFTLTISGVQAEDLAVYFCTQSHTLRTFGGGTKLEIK was 3360

MFI (FACS) measured on WBP3311_2.844.8 (antibody, V domains shown, Mouse monoclonal antibody from hybridoma; also called W3311-2.844.8; clone 2.844.8) VH: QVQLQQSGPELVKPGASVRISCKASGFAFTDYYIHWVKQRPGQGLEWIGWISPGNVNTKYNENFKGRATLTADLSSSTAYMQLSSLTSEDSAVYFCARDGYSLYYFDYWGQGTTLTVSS VL: DIVMSQSPSSLTVSAGEKVTMSCKSSQSLLNSRTRKNYLAWYQQKPGQSPKLLIYWASTRESGVPDRFTGSGSGTAFTLTISGVQAEDLAVYFCTQSHTLRTFGGGTKLEIK = 984

Note to self: MFI (FACS) recorded for WBP331_2.488.33 (antibody, V domains shown, Mouse monoclonal antibody from hybridoma; also called WBP3311_2.488.33; W3311-2.488.33) VH: QVQLQQSGPELVKPGTSVKISCKASGFSFTNYYIHWVKQRPGQGPEWIGWIFPGTVNTKYNEKFKGKATLTADTSSNTAFMQLSSLTSADSAVYFCARDSVGIYYFDFWGLGTTLTVSS VL: DIVMSQSPSSLAVSAGEKVTVSCKSSQSLLNNRTRKNYLAWYQQKPGQSPKLLIYWASTRESGVPDRFTGSGSGTDFTLTISSVQAEDLAVYYCTQSFILRTFGGGTKLEIK was 2270

# binder WBP3311_2.383.47 (antibody, V domains shown, Mouse monoclonal antibody from hybridoma) VH: QVQLQQSGPELVKPGASVRISCKTSGFTFTNYYIHWVIQRPGQGLEWIGWISPENGNTKYNENFQDKATLTADISSSTAYMHLSSLTSEDSAVYFCARDGYSLYYFDYWGQGTTLTVSS VL: DIVMSQSPSSLTVSAGEKVTMSCKSSQSLLNSRTRKNYLAWYQQKPGQSPKLLIYWASIRVSGVPDRFTGSGSGTTFTLTISGVQAEDLAVYYCTQSHTLRTFGGGTKLEIK ; its MFI (FACS) = 2130

For reference, reported MFI (FACS) for WBP3311_2.615.8 (antibody, V domains shown, Mouse monoclonal antibody from hybridoma; also called W3311-2.615.8) VH: QVQLQQSGPELVKPGTSMKISCKASGYSFTDFYTHWVRQRPGQGLEWIGWIFPGSDNIKYNEKFKGKATLTADTSSSTAYMQLSSLTSEDSAVYFCARDSVSVYYFDYWGQGTTLTVSS VL: DIVMSQSPSSLAVTAGEKVTMSCKSSQSLLNIRTRKNYLAWYQQKPGQSPKLLIYWASTRDSGVPDRFTGSGSGTDFTLTISSVQAEDLAVYYCTQSFILRTFGGGTKLEIK stands at 2220
